Test: Selectivity index, ratio of IC50 Inhibition of wild type EGFR (unknown origin) to IC50 for Inhibition of EGFR T790M/C797S double mutant (unknown origin)
Measure: Ratio IC50

* C=CC(=O)Nc1cc(Nc2nccc(Nc3cnn(CC)c3)n2)c(OC)cc1N(C)CCN(C)C | 12.5
* C=CC(=O)Nc1cc(Nc2nccc(Nc3cn(C)c4ccccc34)n2)c(OC)cc1N(C)CCN(C)Cc1ccc(Br)cc1 | 304
* C#CCN(C)CCN(C)c1cc(OC)c(Nc2nccc(Nc3ccn(C)n3)n2)cc1NC(=O)C=C | 5.92

[P] C=CC(=O)Nc1cc(Nc2nccc(Nc3cnn(C)c3)n2)c(OC)cc1N(C)CCN(C)C
[Q] C=CC(=O)Nc1cc(Nc2nccc(Nc3ccn(C)n3)n2)c(OC)cc1N(C)CCN(C)CC(=C)C
Hi there, can you help? I need to know whether P or Q has lower measured Ratio IC50. # respond with the chosen item's label
Q

This collection of values is drawn from ChEMBL document CHEMBL5046228.
